Data origin: the supplement of paper PMC10567573

B1: CLK3 (parent)
chain: FGEDYYGPSRSRHRRRSRERGPYR

variants of: B1; test: protein stability index of a GFP-peptide fusion (GPS, HEK-293T) (PSI 1-6); higher = more stable; settings: c terminus: a fixed tail appended;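 further: lentivirally expressed fusions sorted by FACS into six bins by GFP to DsRed ratio, PSI derived from sequencing read proportions per bin multiplied by bin number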
Quantity kind: protein stability index
Enter the number alone.

protein stability index reported for this variant `G7Y` : 2.78

response.value for `P22V` (field: protein stability index) = 3.03

Sample `Y6F` ; protein stability index observed: 2.4

Recorded result, `Y5P` , protein stability index: 4.3

Please fill in: protein stability index reported for `R18V` = 2.29

Recorded protein stability index (variant `S11M` ): 2.13

Reported protein stability index ( `G2P` ) = 3.52

Record `R16S` . Reported protein stability index: 1.77

Entry `Y23N` — recorded protein stability index = 2.67

Record `E19R` , field protein stability index: 4.55

The variant listed as `G2W` has a reported protein stability index of 4.3

So, `R18Y` ? Its protein stability index was 2.36

Entry `H13Q` ; protein stability index = 2.48

Data point: `E3C` ; protein stability index = 3.26

Query `R16N` yields protein stability index of 2.26

Field protein stability index (entry `R18G` ) reads 2.54

protein stability index measured on `F1R` = 5.35

`Y6V` yielded protein stability index of 4.02

// sample `E19P` , its protein stability index was 4.39

Given item `E19F` , the value recorded as its protein stability index is 4.17

What the record says about `G21N` : protein stability index is 2.33

The variant identified as `S11H` registered its protein stability index at 3.12

protein stability index recorded for this variant, `G2H` , is 2.5
